These measurements were taken from the Human Domainome abundance scans (Beltran et al. 2025).

The variants listed here are annotated with their abundance fitness.
B1: Homeobox expressed in ES cells 1, residues 110 to 165; numbered along this chain, Q9UBX0 (parent)
chain: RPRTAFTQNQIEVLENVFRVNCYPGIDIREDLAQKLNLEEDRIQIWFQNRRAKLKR

# Variants of: B1
# MEASUREMENT DESCRIPTION: abundance fitness (aPCA) (normalised: wild type 0, dead -1); higher = more abundant; growth selection in yeast, the domain comes from the species named
# EXPERIMENTAL PARAMETERS: Homo sapiens
Respond numerically, and do not add a unit to the figure.

> print(dat)
   mutant  reported.endpoint  test.value
1    R19G  abundance fitness      -0.452

Which abundance fitness value is on record for "V13C" ?
-0.149

Report abundance fitness for "R3D" please.
0.126

Entry "D31I" : reported abundance fitness = ?
0.221

Dear colleague, I am looking for the recorded abundance fitness of the following variant: "I11P"
-0.598

Please report the recorded abundance fitness for "T7G" .
-0.401

Tell me the measured abundance fitness of "D27V" , please.
-0.314
